Cited source: ChEMBL document CHEMBL1795326

Assay: Inhibition of HSP90
pIC50: −log10 of the molar value.
reportedMetric: pIC50

CCOC(=O)NCc1ccc(-n2cnnc2-c2cc(C(C)C)c(O)cc2O)cc1 :: 4.40

I = Cc1ccccc1[C@H]1CCCN1C(=O)c1ccc(O)cc1O
II = Cc1nc(N)nc2c1/C(=N/O)C[C@@H](c1ccc(F)cc1-c1cccnc1)C2
III = Oc1ccc2c(-c3cc(Br)c(O)cc3O)noc2c1
Exercise: In this exercise, place the 3 molecules in ascending sequence of their recorded pIC50. Thanks in advance for listing the labels in the requested order.
Solution: III, I, II
